Test system: MCF-7 McGuire (Estrogen Responsive Human Breast Cancer Cell Line)
Experiment: Inhibition of DNA synthesis (3H-TdR uptake) / proliferation, MCF-7
Format: cell-based
Settings: Homo sapiens, MCF7; MCF-7, 5 μg/mL, 48 h
measurementType: inhibition at 5 µg/mL (%)
Numbers only, in %.

// below: answered compounds
compound	measurementType	measurementUnit	experimentalResult
Cc1c(C)c2c(c(C)c1O)CC1(CC1)O2	inhibition at 5 µg/mL	%	5
Cc1cc2c(C)c(O)c(C)c(C)c2o1 [Compound 33, 5-Hydroxy-2,4,6,7-tetramethylbenzofuran]	inhibition at 5 µg/mL	%	0
CC(=O)N1CC(C)(C)c2c(C)c(O)c(C)c(C)c21 [Compound 31b]	inhibition at 5 µg/mL	%	29
Cc1cc2c(c(C)c1O)C(C)CN2C(=O)C(C)(C)C (centres unmarked) [Compound 11c]	inhibition at 5 µg/mL	%	9

Continue with the compound presented below.
Query (compound): Cc1c(O)c(C)c2c(C)cn(C(=O)C(C)(C)C)c2c1C ; field requested: inhibition at 5 µg/mL
57

###

Provide the recorded inhibition at 20 µg/mL for the entries that follow.
System: MCF-7 McGuire (Estrogen Responsive Human Breast Cancer Cell Line)
Assay: Inhibition of DNA synthesis (3H-TdR uptake) / proliferation, MCF-7
Assay type: cell-based
Details: Homo sapiens, MCF7; MCF-7, 20 μg/mL, 48 h
Answers are plain numbers, in %.

Return reported inhibition at 20 µg/mL values for all items listed beneath this line.
1. Cc1cc2c(C)c(O)c(C)c(C)c2o1 [Compound 33, 5-Hydroxy-2,4,6,7-tetramethylbenzofuran]
2. Cc1cc2c(c(C)c1O)C(C)CN2C(=O)C(C)(C)C (stereo not shown) [Compound 11c]

1. 72
2. 43

Return reported inhibition at 20 µg/mL values for all items listed beneath this line.
1. CC(=O)N1CC(C)(C)c2c(C)c(O)c(C)c(C)c21 [Compound 31b]
2. Cc1cc2c(c(C)c1O)C(C)CN2C(=O)C(C)C (stereo not shown) [Compound 11b]
3. CC(=O)Oc1c(C)cc2c(c1C)C(C)CN2C(=O)C(C)C (stereo not shown) [Compound 12b]
4. CC(C)(C)c1cc2c(c(C(C)(C)C)c1O)CC(=O)O2

1: 22; 2: 53; 3: 70; 4: 97

Query (compound): Cc1c(C)c2c(c(C)c1O)CC1(CC1)O2 ; field requested: inhibition at 20 µg/mL
22

###

Tested on: HL-60 (Human Promyelocytic Leukemia Cell Line)
Assay: Inhibition of DNA synthesis (3H-TdR uptake) / proliferation, HL-60
Assay type: cell-based
Details: Homo sapiens; HL-60, 10 μg/mL, 48 h
Provide the recorded inhibition at 10 µg/mL for the entries that follow.
Numbers only, in %.

compound	measurementUnit	inhibition at 10 µg/mL
CC(=O)N1CC(C)(C)c2c1cc(C)c(O)c2C	%	11
Cc1c(C)c2c(c(C)c1O)CC1(CC1)O2	%	17
CC(C)(C)c1cc2c(c(C(C)(C)C)c1O)CC(=O)O2	%	30
Cc1cc2c(c(C)c1O)C(C)CN2C(=O)C(C)(C)C (stereo not drawn) [Compound 11c]	%	0

Return reported inhibition at 10 µg/mL values for all items listed beneath this line.
1. CC(=O)N1CC(C)(C)c2c(C)c(O)c(C)c(C)c21 [Compound 31b]
2. Cc1c(O)c(C)c2c(C)cn(C(=O)C(C)(C)C)c2c1C
3. CC(=O)Oc1c(C)cc2c(c1C)C(C)CN2C(=O)C(C)C (stereo not drawn) [Compound 12b]
4. Cc1cc2c(C)c(O)c(C)c(C)c2o1 [Compound 33, 5-Hydroxy-2,4,6,7-tetramethylbenzofuran]
5. COc1c(C)cc2c(c1C)C(C)CN2C(=O)C(C)C (stereo not drawn)

[15, 91, 67, 7, 27]
